Form field: half-life at 1 µM (one value per entry).
assay: Half life in mouse liver microsomes at 1 uM after 60 mins in presence of NADPH and ritonavir by LC-MS/MS analysis; format: ADME, microsome; conditions: with ritonavir (concentration not stated)

{"Compound": "CS(=O)(=O)c1ccc(COc2ccc(Cl)cc2CN2CCN(C(=O)CNC(=O)CC3CCC(F)(F)CC3)CC2)cc1", "half-life at 1 µM": "> 2 h"}

As a next step, examine the compound that follows.
GET /values?readout=half-life at 1 µM&item= `[2H]C([2H])(c1cc(Cl)ccc1N)N1CCN(C(=O)CNC(=O)CC2CCC(F)(F)CC2)CC1`
> 2 h

====

experiment: Concentration in mouse plasma at 25 mg/kg, po administered via gavage after 12 hrs; format: ADME, organism-based
Metric: concentration at 12 h (nM)
Provide only the numeric value, understood in nM.

GET /values?readout=concentration at 12 h&item= `[2H]C([2H])(c1cc(Cl)ccc1N)N1CCN(C(=O)CNC(=O)CC2CCC(F)(F)CC2)CC1`
200

====

assay: Half life in mouse at 50 mg/kg, po administered via gavage cotreated with 50 mg/kg ritonavir; type: ADME, organism-based; settings: in vivo
Metric: half-life (h)
Provide only the numeric value, understood in h.

Would you please look over these solved cases?
{"Molecule": "[2H]C([2H])(c1cc(Cl)ccc1N)N1CCN(C(=O)CNC(=O)C2CC23CCC(F)(F)CC3)CC1 (single isomer, unassigned; (-))", "Result": 3.2}
{"Molecule": "CS(=O)(=O)c1ccc(COc2ccc(Cl)cc2CN2CCN(C(=O)CNC(=O)C3CC34CCC(F)(F)CC4)CC2)cc1 (stereo in doubt; 3-22)", "Result": 3.2}

GET /values?readout=half-life&item= [2H]C([2H])(c1cc(Cl)ccc1NCc1ccc(S(C)(=O)=O)cc1)N1CCN(C(=O)CNC(=O)C2CC23CCC(F)(F)CC3)CC1 (single isomer, unassigned; (-))
1.7

====

tested on: Ebolavirus; assay: Antiviral activity against Ebolavirus isolate Makona infected in human HeLa cells assessed as inhibition of viral infection pretreated for 2 hrs before viral infection and measured after 48 hrs by EboV GP immunostaining based method; assay type: functional, cell-based; settings: Orthoebolavirus
Metric: EC50

Would you please look over these solved cases?
{"Molecule": "COC(=O)c1ccc(COc2ccccc2CN2CCN(C(=O)CNC(=O)CC34CC5CC(CC(C5)C3)C4)CC2)cc1", "EC50": "0.16 µM"}
{"Molecule": "CS(=O)(=O)c1ccc(COc2ccc(Cl)cc2CN2CCN(C(=O)CNC(=O)C3CC34CCC(F)(F)CC4)CC2)cc1 (racemic)", "EC50": "0.14 µM"}
{"Molecule": "CS(=O)(=O)c1ccc(CNc2ccc(Cl)cc2CN2CCN(C(=O)CNC(=O)C3CC34CCC(F)(F)CC4)CC2)cc1 (racemic)", "EC50": "0.017 µM"}

As a next step, examine the molecule that follows.
GET /values?readout=EC50&item= `CS(=O)(=O)c1ccc(CNc2ccc(Cl)cc2CN2CCN(C(=O)CNC(=O)CC3CCC(F)(F)CC3)CC2)cc1`
0.052 µM

====

test: Stability of the compound in mouse plasma at 10 uM assessed as compound remaining after 4 hrs by LC-MS/MS analysis; assay type: ADME, cell-free; conditions: read-out: Stability
Form field: remaining at 4 h, 10 µM (one value per entry).
Provide only the numeric value, understood in %.

Would you please look over these solved cases?
{"Compound": "[2H]C([2H])(c1cc(Cl)ccc1N)N1CCN(C(=O)CNC(=O)CC2CCC(F)(F)CC2)CC1", "U": "%", "remaining at 4 h, 10 µM": 86}
{"Compound": "[2H]C([2H])(c1cc(Cl)ccc1N)N1CCN(C(=O)CNC(=O)C2CC23CCC(F)(F)CC3)CC1 (single isomer, unassigned; (-))", "U": "%", "remaining at 4 h, 10 µM": 88}
{"Compound": "O=C(CC12CC3CC(CC(C3)C1)C2)NCC(=O)N1CCN(Cc2ccccc2OCc2ccc(-c3ncco3)cc2)CC1", "U": "%", "remaining at 4 h, 10 µM": 37}
{"Compound": "CS(=O)(=O)c1ccc(COc2ccc(Cl)cc2CN2CCN(C(=O)CNC(=O)C3CC34CCC(F)(F)CC4)CC2)cc1 (stereo in doubt; 3-22)", "U": "%", "remaining at 4 h, 10 µM": 69}
{"Compound": "[2H]C([2H])(c1cc(Cl)ccc1NCc1ccc(S(C)(=O)=O)cc1)N1CCN(C(=O)CNC(=O)C2CC23CCC(F)(F)CC3)CC1 (single isomer, unassigned; (-))", "U": "%", "remaining at 4 h, 10 µM": 72}
{"Compound": "CS(=O)(=O)c1ccc(COc2ccc(Cl)cc2CN2CCN(C(=O)CNC(=O)CC3CCC(F)(F)CC3)CC2)cc1", "U": "%", "remaining at 4 h, 10 µM": 30}

As a next step, examine the compound that follows.
GET /values?readout=remaining at 4 h, 10 µM&item= `Nc1ccc(Cl)cc1CN1CCN(C(=O)CNC(=O)CC2CCC(F)(F)CC2)CC1`
94

====

Form field: IC50 (one value per entry).
test system: Ebolavirus; experiment: Antiviral activity against VSV pseudotyped Ebolavirus expressing M-GFP infected in African green monkey Vero E6 cells assessed as inhibition of viral infection pre-incubated for 2 hrs before infection and measured after 8 to 12 hrs in presence of 10% FBS and 50% NHS by fluorescence microscopic method; type: functional; settings: Orthoebolavirus, Vero C1008
Provide only the numeric value, understood in nM.

{"Compound": "[2H]C([2H])(c1cc(Cl)ccc1NCc1ccc(S(C)(=O)=O)cc1)N1CCN(C(=O)CNC(=O)C2CC23CCC(F)(F)CC3)CC1 (single isomer, unassigned; (-))", "IC50 [nM]": 109}

As a next step, examine the compound that follows.
GET /values?readout=IC50&item= CS(=O)(=O)c1ccc(COc2ccc(Cl)cc2CN2CCN(C(=O)CNC(=O)C3CC34CCC(F)(F)CC4)CC2)cc1 (stereo in doubt; 3-22)
93

====

Form field: half-life at 1 µM (one value per entry).
assay: Half life in mouse liver microsomes at 1 uM after 60 mins in presence of NADPH and ritonavir by LC-MS/MS analysis; format: ADME, microsome; settings: with ritonavir (concentration not stated)
Provide only the numeric value, understood in h.

GET /values?readout=half-life at 1 µM&item= [2H]C([2H])(c1cc(Cl)ccc1N)N1CCN(C(=O)CNC(=O)C2CC23CCC(F)(F)CC3)CC1 (single isomer, unassigned; (-))
1.52

GET /values?readout=half-life at 1 µM&item= [2H]C([2H])(c1cc(Cl)ccc1NCc1ccc(S(C)(=O)=O)cc1)N1CCN(C(=O)CNC(=O)C2CC23CCC(F)(F)CC3)CC1 (single isomer, unassigned; (-))
1.45

The origin of these recorded values is ChEMBL document CHEMBL4190400.
